- system.tested: IKKε (Homo sapiens)
- Construct: His-tag; made in house; host or cells: Sf9 insect cells
- Sequence (Q14164 whole entry): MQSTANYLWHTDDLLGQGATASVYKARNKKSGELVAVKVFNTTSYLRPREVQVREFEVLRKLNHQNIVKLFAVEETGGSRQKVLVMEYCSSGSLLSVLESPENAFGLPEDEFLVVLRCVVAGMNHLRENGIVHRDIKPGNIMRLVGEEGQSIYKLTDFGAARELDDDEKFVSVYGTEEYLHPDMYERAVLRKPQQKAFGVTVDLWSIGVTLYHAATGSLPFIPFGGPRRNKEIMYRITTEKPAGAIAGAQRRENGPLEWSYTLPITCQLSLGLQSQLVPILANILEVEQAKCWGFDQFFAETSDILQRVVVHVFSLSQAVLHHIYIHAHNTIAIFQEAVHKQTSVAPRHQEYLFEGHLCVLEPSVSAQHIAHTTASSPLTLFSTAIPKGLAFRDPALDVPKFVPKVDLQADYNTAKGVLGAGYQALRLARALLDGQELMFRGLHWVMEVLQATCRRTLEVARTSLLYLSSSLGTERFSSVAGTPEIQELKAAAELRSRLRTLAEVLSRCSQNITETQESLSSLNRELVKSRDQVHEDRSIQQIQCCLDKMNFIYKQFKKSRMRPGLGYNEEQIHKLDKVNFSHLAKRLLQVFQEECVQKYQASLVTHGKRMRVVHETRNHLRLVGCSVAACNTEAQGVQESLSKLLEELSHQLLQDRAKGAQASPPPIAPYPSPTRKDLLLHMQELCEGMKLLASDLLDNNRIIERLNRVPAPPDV
- protocol: In-vitro IKKε kinase assay ([γ33]ATP filter-plate)
- Assay type: biochemical
- condition.parameters: text bins; read-out: IC50 for inhibition of the kinase activity of IKKε
pIC50: −log10 of the molar value.
measure.name: pIC50

- N#Cc1cc(-c2ccnc(Nc3ccc(N4CCOCC4)cc3)n2)ccc1O[C@@H]1CCN(C(=O)CO)C1 [compound 471]: > 8.30

Entry N#Cc1cc(-c2ccnc(Nc3ccc(N4CCOCC4)cc3)n2)ccc1OC1CCN(C(=O)C2(N)CC2)C1 (centres unmarked) [Example 189] ; pIC50 = 6.30 to 7.30

Entry COCCNCc1ccc(Nc2nccc(-c3ccc(NC(=O)C4CC4)c(C#N)c3)n2)cc1OC [compound 556] ; pIC50 = 7.30 to 8.30

Entry N#Cc1cccc(-c2ccnc(Nc3ccc(OCC(=O)N4CCOCC4)cc3)n2)c1 [compound 386] ; pIC50 = 6.30 to 7.30

====

- system.tested: IKKε (Homo sapiens)
- Construct: His-tag; made in house; host or cells: Sf9 insect cells
- protocol: In-vitro IKKε kinase assay ([γ33]ATP filter-plate)
- Format: biochemical
- condition.parameters: text bins; read-out: IC50 for inhibition of the kinase activity of IKKε
Item-by-item account of IC50

- CC(C)C(=O)Nc1ccc(-c2ccnc(Nc3cccc(OCCCN4CCOCC4)c3)n2)cc1C#N [compound 429]: 5 to 50 nM

Entry COc1ccc(-c2ccnc(Nc3cccc(NC(=O)NC4CCCC4)c3)n2)cc1C#N [compound 348] , IKKε (Homo sapiens) data, IC50 value: 50 to 500 nM

Entry C[C@H](O)C(=O)N1CCC(Oc2ccc(-c3ccnc(Nc4ccc(F)c(OCCN)c4)n3)cc2C#N)CC1 [compound 655] , IKKε (Homo sapiens) data, IC50 value: < 5 nM

Entry N#Cc1cc(-c2ccnc(Nc3ccc(N4CCOCC4)cc3)n2)ccc1OCCCNC(=O)CO [Example 181] , IKKε (Homo sapiens) data, IC50 value: < 5 nM

Entry N#Cc1cc(-c2ccnc(Nc3ccc(N4CCOCC4)cc3)n2)ccc1NCc1ccccn1 [Example 64] , IKKε (Homo sapiens) data, IC50 value: 5 to 50 nM

Entry N#Cc1cccc(-c2ccnc(Nc3cccc(S(N)(=O)=O)c3)n2)c1 [compound 373] , IKKε (Homo sapiens) data, IC50 value: < 5 nM

Entry N#Cc1cc(-c2ccnc(Nc3ccc(N4CCOCC4)cc3)n2)ccc1NS(=O)(=O)CC(F)(F)F [Example 243] , IKKε (Homo sapiens) data, IC50 value: 5 to 50 nM

Entry COc1cc(Nc2nccc(-c3ccc(OC4CCN(C(=O)CO)CC4)c(C#N)c3)n2)ccc1N1CCOCC1 [Example 59] , IKKε (Homo sapiens) data, IC50 value: < 5 nM

====

- system.tested: TBK1 (Homo sapiens, UniProt Q9UHD2)
- Construct: His-tag; made in house; host or cells: Sf9 insect cells
- Sequence (Q9UHD2 whole entry): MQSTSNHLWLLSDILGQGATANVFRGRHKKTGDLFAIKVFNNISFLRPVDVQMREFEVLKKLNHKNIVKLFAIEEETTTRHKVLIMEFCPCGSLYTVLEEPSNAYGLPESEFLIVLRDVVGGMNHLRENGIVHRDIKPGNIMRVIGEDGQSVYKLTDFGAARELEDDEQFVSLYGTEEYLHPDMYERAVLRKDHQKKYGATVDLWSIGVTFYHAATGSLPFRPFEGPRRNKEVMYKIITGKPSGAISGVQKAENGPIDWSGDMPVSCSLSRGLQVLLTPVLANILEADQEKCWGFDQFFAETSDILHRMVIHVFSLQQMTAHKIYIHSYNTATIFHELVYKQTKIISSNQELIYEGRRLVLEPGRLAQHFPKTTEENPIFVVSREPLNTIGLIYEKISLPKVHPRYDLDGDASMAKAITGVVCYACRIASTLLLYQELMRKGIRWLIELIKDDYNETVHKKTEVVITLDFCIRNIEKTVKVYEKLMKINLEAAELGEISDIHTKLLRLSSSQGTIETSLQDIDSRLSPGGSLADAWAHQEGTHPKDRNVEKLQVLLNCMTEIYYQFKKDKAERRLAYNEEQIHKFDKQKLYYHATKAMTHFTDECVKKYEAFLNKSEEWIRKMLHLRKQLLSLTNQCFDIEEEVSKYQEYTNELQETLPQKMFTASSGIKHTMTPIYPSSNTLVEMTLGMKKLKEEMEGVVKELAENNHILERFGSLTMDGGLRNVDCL
- protocol: In-vitro TBK1 kinase assay ([γ33]ATP filter-plate)
- Format: biochemical
- condition.parameters: Table 3; read-out: TBK1 IC50
pIC50: −log10 of the molar value.
measure.name: pIC50

P: CN(C)CCCNS(=O)(=O)c1ccc(Nc2nccc(-c3ccc(OC4CCOCC4)c(C#N)c3)n2)cc1
Q: CN(C)C(=O)Nc1cccc(Nc2nccc(-c3ccc(OC4CCOCC4)c(C#N)c3)n2)c1
R: N#Cc1cc(-c2ccnc(Nc3cccc(CN4CCN(CCO)CC4)c3)n2)ccc1OC1CCOCC1
S: N#Cc1cc(-c2ccnc(Nc3cccc(CN4CCC(O)C4)c3)n2)ccc1OC1CCOCC1 (stereo not shown)
Order these by pIC50, descending, and give the full ranking. Ranked list of labels, please, in the requested order.
P, R, S, Q
(P: 9.70, R: 9.40, S: 9.15, Q: 8.89)

P: N#Cc1cc(-c2ccnc(Nc3cccc(N4CCOCC4)c3)n2)ccc1OC1CCOCC1
Q: N#Cc1cc(-c2ccnc(Nc3ccc(CNC(=O)c4cnc(N)s4)cc3)n2)ccc1OC1CCOCC1
Endpoint returns whichever of P and Q has the numerically higher pIC50. Kindly state the label of the option you pick.
Q

I: N#Cc1cc(-c2ccnc(Nc3cccc(NC(=O)N4CCOCC4)c3)n2)ccc1OC1CCOCC1
II: COc1cc(Nc2nccc(-c3ccc(OC4CCOCC4)c(C#N)c3)n2)ccc1C(=O)NCCN(C)C
Endpoint returns whichever of I and II has the numerically higher pIC50. Kindly state the label of the option you pick.
II
(II: 9.40, I: 8.89)
